Numbers sourced from patent US20210355194A1.

target: ACE2 (human, UniProt Q9BYF1 18-740)
Sequence (Q9BYF1 18-740 limits assumed): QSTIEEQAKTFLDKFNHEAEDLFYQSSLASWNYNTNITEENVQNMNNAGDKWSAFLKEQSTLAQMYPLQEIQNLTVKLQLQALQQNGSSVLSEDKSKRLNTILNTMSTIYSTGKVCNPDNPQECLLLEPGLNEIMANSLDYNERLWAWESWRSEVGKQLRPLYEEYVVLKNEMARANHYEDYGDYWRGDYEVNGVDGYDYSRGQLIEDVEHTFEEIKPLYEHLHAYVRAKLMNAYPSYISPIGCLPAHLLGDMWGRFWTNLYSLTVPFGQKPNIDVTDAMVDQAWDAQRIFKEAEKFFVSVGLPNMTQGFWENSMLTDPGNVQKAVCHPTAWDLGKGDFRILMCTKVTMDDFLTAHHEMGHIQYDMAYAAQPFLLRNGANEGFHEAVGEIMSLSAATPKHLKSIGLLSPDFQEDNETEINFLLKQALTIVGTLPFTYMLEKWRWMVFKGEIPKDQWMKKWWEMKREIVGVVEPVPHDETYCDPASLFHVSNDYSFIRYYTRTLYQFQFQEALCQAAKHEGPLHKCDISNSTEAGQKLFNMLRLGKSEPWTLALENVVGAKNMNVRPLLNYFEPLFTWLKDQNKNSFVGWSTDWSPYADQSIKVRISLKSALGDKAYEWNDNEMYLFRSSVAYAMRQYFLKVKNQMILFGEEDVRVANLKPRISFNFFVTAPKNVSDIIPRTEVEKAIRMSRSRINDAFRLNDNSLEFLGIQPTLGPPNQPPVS
valueKind: log10 of kon (log10 of the value in M⁻¹ s⁻¹)
Please interpret these as log10 of kon where kon is in M⁻¹ s⁻¹.

binder	log10 of kon
ACE2 variant antibody 4-63 (VHH) VHH: EVQLVESGGGLVQPGGSLRLSCAASGRTFSDYTMGWFRQAPGKEREFVAAINWSGGYTYYADSVKGRFTISADNSKNTAYLQMNSLKPEDTAVYYCATDPPLFWGQGTLVTVSS	5.79
ACE2 variant antibody 4-56 (VHH) VHH: EVQLVESGGGLVQPGGSLRLSCAASGFSLDYYGMGWFRQAPGKERESVAAISWNGDFTAYADSVKGRFTISADNSKNTAYLQMNSLKPEDTAVYYCAKRANPTGAYFDYWGQGTLVTVSS	5.11
ACE2 variant antibody 4-64 (VHH) VHH: EVQLVESGGGLVQPGGSLRLSCAASGRTFGDYIMGWFRQAPGKERESVAAINWSAGYTAYADSVKGRFTISADNSKNTAYLQMNSLKPEDTAVYYCATASPNTGWHFDHWGQGTLVTVSS	6.46
ACE2 variant antibody 4-82 (VHH) VHH: EVQLVESGGGLVQPGGSLRLSCAASGRTFGDYAMGWFRQAPGKEREFVAAINWSGGYTRYADSVKGRFTISADNSKNTAYLQMNSLKPEDTAVYYCATDPPLFWGQGTLVTVSS	5.48
ACE2 variant antibody 4-78 (VHH) VHH: EVQLVESGGGLVQPGGSLRLSCAASGRTFSDDTMGWFRQAPGKEREFVAGMTWSGSSTFYADSVKGRFTISADNSKNTAYLQMNSLKPEDTAVYYCATDPPLFWGQGTLVTVSS	5.39

Alright, here's another binder for you.
**Q:** // returns reported log10 of kon for input ACE2 variant antibody 4-61 (VHH) VHH: EVQLVESGGGLVQPGGSLRLSCAASGRTFGDYIMGWFRQAPGKEREIVAAINWSADYTPYADSVKGRFTISADNSKNTAYLQMNSLKPEDTAVYYCATAPPNTGWHFDHWGQGTLVTVSS
**A:** 5.54
